test system: Aspergillus fumigatus; assay: Inhibition of DHPS in Aspergillus fumigatus assessed as antifungal activity by measuring inhibition zone at 5 mg/mL incubated for 48 hrs by disk diffusion method
Active and inactive are the calls of the source. The calls are words filed in the database; no cut-off is given here.
endpoint label: inhibition zone (IZ)

Example cases with answers are listed next.
smiles_input=C=CCN/C(SC)=C(/C#N)C(=O)Nc1ccc(S(=O)(=O)Nc2onc(C)c2C)cc1 observed="12.6 mm"
smiles_input=CN/C(SC)=C(/C#N)C(=O)Nc1ccc(S(=O)(=O)Nc2onc(C)c2C)cc1 observed=inactive
smiles_input=CC(=O)OC[C@H]1O[C@@H](S/C(Nc2ccccc2)=C(\C#N)C(=O)Nc2ccc(S(=O)(=O)Nc3onc(C)c3C)cc2)[C@H](OC(C)=O)[C@@H](OC(C)=O)[C@H]1OC(C)=O observed=inactive
smiles_input=CCN/C(SCC)=C(/C#N)C(=O)Nc1ccc(S(=O)(=O)Nc2onc(C)c2C)cc1 observed="21.6 mm"
smiles_input=C[C@@H]1[C@H](O)[C@@H](C)/C=C/C=C/C=C/C=C/C=C/C=C/C=C/[C@H](O[C@@H]2O[C@H](C)[C@@H](O)[C@H](N)[C@@H]2O)C[C@@H]2O[C@](O)(C[C@@H](O)C[C@@H](O)[C@H](O)CC[C@@H](O)C[C@@H](O)CC(=O)O[C@H]1C)C[C@H](O)[C@H]2C(=O)O observed="23.7 mm"

Reading of inhibition zone (IZ) for Cc1noc(NS(=O)(=O)c2ccc(NC(=O)/C(C#N)=C(/S)Nc3ccccc3)cc2)c1C with Aspergillus fumigatus: 16.8 mm

Record C=CCN/C(S[C@@H]1O[C@H](COC(C)=O)[C@@H](OC(C)=O)[C@H](OC(C)=O)[C@H]1OC(C)=O)=C(/C#N)C(=O)Nc1ccc(S(=O)(=O)Nc2onc(C)c2C)cc1 / Aspergillus fumigatus, inhibition zone (IZ) recorded as 26.1 mm
